# Procedure text: gradient 5% acetonitrile 3 min, to 50% in 2 min, to 85% in 15 min, held 3 min, 100 µL/min
# Test conditions: column: Zorbax Extend-C18 2.1 x 50 mm; eluents: water / acetonitrile, 0.1% formic acid
Quantity: RP-LC retention time (s)

>  <Compound>
O=c1oc(-c2ccccc2)c(-c2ccccc2)c2ccccc12

>  <Quantity>
RP-LC retention time

>  <Numeric readout>
1030

$$$$
>  <Compound>
CCCn1ccc2sc(C)c(C(=O)NCc3cc(F)ccc3F)c2c1=O

>  <Quantity>
RP-LC retention time

>  <Numeric readout>
940

$$$$
>  <Compound>
CCc1cccc(C)c1Nc1c(-c2ccc(C)cc2)nc2ncccn12

>  <Quantity>
RP-LC retention time

>  <Numeric readout>
878

$$$$
>  <Compound>
COc1ccc2c(c1)C1(CCN(C(=O)CC(C)(C)C)C1)C(=O)N2 (stereo not given)

>  <Quantity>
RP-LC retention time

>  <Numeric readout>
725

$$$$
>  <Compound>
O=C1CCC(CCNS(=O)(=O)c2ccc3c(c2)CCCC3)CCN1CC1CC1 (stereo not given)

>  <Quantity>
RP-LC retention time

>  <Numeric readout>
938

$$$$
>  <Compound>
CCC(C(=O)NCCCN1CCOCC1)n1c2ccccc2c2cnn(C)c(=O)c21 (stereo not given)

>  <Quantity>
RP-LC retention time

>  <Numeric readout>
609

$$$$
>  <Compound>
COc1ccc(-c2noc(Cc3nc(-c4ccc(Br)cc4)cs3)n2)cc1

>  <Quantity>
RP-LC retention time

>  <Numeric readout>
1280

$$$$
>  <Compound>
Cc1cccc(OCCCn2c(CO)nc3ccccc32)c1

>  <Quantity>
RP-LC retention time

>  <Numeric readout>
678

$$$$
>  <Compound>
Cn1nc(C(=O)N2CCCC2)c2c1CCN(C(=O)CCC(=O)N1CCN(c3ccccc3)CC1)C2

>  <Quantity>
RP-LC retention time

>  <Numeric readout>
701

$$$$
>  <Compound>
Cc1cc(C)n(-c2ccnc(NCc3cccnc3)n2)n1

>  <Quantity>
RP-LC retention time

>  <Numeric readout>
588

$$$$
>  <Compound>
Cc1cccc(-n2c(=O)c3c(cc(C)n3C)n(CC(=O)Nc3ccccc3F)c2=O)c1

>  <Quantity>
RP-LC retention time

>  <Numeric readout>
836

$$$$
>  <Compound>
N#Cc1ccc(S(=O)(=O)N2CCCOCCNC(=O)[C@@H]3CCC[C@@H]32)cc1

>  <Quantity>
RP-LC retention time

>  <Numeric readout>
714

$$$$
>  <Compound>
CC(C)c1ccc(NC(=O)C2CC(=O)N(CCc3c[nH]c4ccc(Cl)cc34)C2)cc1 (stereo not given)

>  <Quantity>
RP-LC retention time

>  <Numeric readout>
983

$$$$
>  <Compound>
Cc1ccc(S(=O)(=O)CCc2noc(-c3cccc4[nH]ccc34)n2)cc1

>  <Quantity>
RP-LC retention time

>  <Numeric readout>
887

$$$$
>  <Compound>
Cc1ccc(NC(=O)N2CC(c3nc(CCOCC4CC4)no3)C2)cc1C

>  <Quantity>
RP-LC retention time

>  <Numeric readout>
863

$$$$
>  <Compound>
Cc1nn(-c2ccccc2)c(C)c1S(=O)(=O)N1CCC(C(=O)Nc2ccc3c(c2)OCO3)CC1

>  <Quantity>
RP-LC retention time

>  <Numeric readout>
905

$$$$
>  <Compound>
Cc1nc(-c2cc(S(=O)(=O)N3CCC(C(=O)N4CCc5ccccc54)CC3)c(C)s2)no1

>  <Quantity>
RP-LC retention time

>  <Numeric readout>
1040

$$$$
>  <Compound>
CCn1nc(C)c(CCNC(=O)C2CCCN(C(=O)c3[nH]c(C)cc3C)C2)c1C (stereo not given)

>  <Quantity>
RP-LC retention time

>  <Numeric readout>
630

$$$$
>  <Compound>
O=C(O)c1ccc(Nc2c(-c3cccc(Cl)c3)nc3cnccn23)cc1

>  <Quantity>
RP-LC retention time

>  <Numeric readout>
714

$$$$
>  <Compound>
CCOC(=O)c1nc(NCc2ccccc2OCC)c2c(C)noc2n1

>  <Quantity>
RP-LC retention time

>  <Numeric readout>
988

$$$$
